The reader will find reported inhibition at 20 µM values listed item by item below.
target: KRas G12D/Q61H double mutant (Homo sapiens (Human), UniProt P01116, G12D/Q61H); assay: Ras GTP binding domain inhibition assay (labeled GTP); conditions: 20 μM compound; read-out: % Inhibition at 20 μM KRas G12D Q61H
Sequence (P01116-2 other isoform, or with tags, fused parts or gaps G12D/Q61H): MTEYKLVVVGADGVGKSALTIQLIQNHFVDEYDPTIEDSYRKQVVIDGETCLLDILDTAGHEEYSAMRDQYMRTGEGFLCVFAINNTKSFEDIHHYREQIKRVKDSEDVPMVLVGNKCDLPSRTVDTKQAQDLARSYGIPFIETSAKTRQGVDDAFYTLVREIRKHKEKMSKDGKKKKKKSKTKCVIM

| compound | inhibition at 20 µM |
| --- | --- |
| Nc1nc(O)c2scc(C(=O)N3CCC(N4CCOCC4)CC3)c2n1 [drawing 2662] | 1 to 25% |
| Nc1nc(-c2ccccn2)nc2c(-c3ccccc3)csc12 [drawing 2859] | 25 to 50% |
| c1ccc(OCc2nc(CNCCn3cccn3)cs2)cc1 | 25 to 50% |
| Oc1nc(-c2ccccn2)nc2c(C3CCNCC3)csc12 [drawing 2711] | 51 to 75% |
| Cc1ccc(S(=O)(=O)Nc2ccc(OS(=O)(=O)N(C)Cc3ccccc3)cc2)cc1 | 25 to 50% |
| COc1ccccc1OCc1ccc(C(=O)N2CCCc3c(F)cc(F)cc32)o1 | 25 to 50% |
| CCCCCCNC(=O)c1cc(S(=O)(=O)N(C)C)ccc1N1CCOCC1 | 1 to 25% |

====

Biological target: KRas Q61H mutant (Homo sapiens (Human), UniProt P01116, Q61H)
Sequence (P01116-2 other isoform, or with tags, fused parts or gaps Q61H): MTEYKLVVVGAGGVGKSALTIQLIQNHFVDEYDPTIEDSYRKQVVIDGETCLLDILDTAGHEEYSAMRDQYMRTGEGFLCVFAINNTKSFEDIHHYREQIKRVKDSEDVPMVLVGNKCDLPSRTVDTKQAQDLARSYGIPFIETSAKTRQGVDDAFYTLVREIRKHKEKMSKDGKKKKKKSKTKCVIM
Assay: Ras GTP binding domain inhibition assay (labeled GTP)
Conditions: 20 μM compound; read-out: % Inhibition at 20 μM KRas Q61H
Experimental: Buffer-I: • 50 mM Tris, pH 7.5 • 150 mM NaCl (optional) • 1 mM MgCl2 • 1 mM DTT. • KRas G12D mutant protein was expressed as a His-tagged protein. […] Then 22 μl of Cy3-GTP or Cy5-GTP was added to each well. The labeled GTP was incubated for 45 min. at room temperature. • Following GTP incubation, wells were washed 3× in Buffer-I, and 200 μl of Buffer-I were added to each well. • Following washes, the amount of bound labeled-GTP was measured with an Eppendorf AF2200 plate reader. […]

| molecule | inhibition at 20 µM |
| --- | --- |
| COc1ccnc(-c2nc(O)c3c(C(F)(F)F)csc3n2)c1 [drawing 2833] | 25 to 50% |
| O=C(c1csc2c(O)nc(-c3ccccn3)nc12)N1CCN(Cc2ccccc2)CC1 [drawing 2762] | 76 to 100% |
| COc1ccncc1CCNC(=O)c1csc2nc(-c3ccccn3)nc(N3CCOCC3)c12 [drawing 2780] | 25 to 50% |
| Cc1cnccc1-c1csc2c(O)nc(-c3ccccn3)nc12 [drawing 2888] | 51 to 75% |
| COc1cc(-c2csc3c(O)nc(-c4ccccn4)nc23)cnc1C(F)(F)F [drawing 2884] | 51 to 75% |
| O=C(c1cc2nc(-c3ccccn3)nc(O)c2s1)N1CCN(c2ccccc2)CC1 [drawing 2841] | 51 to 75% |
| O=C(c1csc2c(O)nc(-c3ccccn3)nc12)N1CCN(c2ccc(F)cc2)CC1 [drawing 2754] | 25 to 50% |
| Cc1cc(OC(F)F)ccc1-c1csc2c(O)nc(-c3ccccn3)nc12 [drawing 2878] | 25 to 50% |

====

target: KRas G12D mutant protein (Homo sapiens (Human), UniProt P01116, G12D); assay: Ras GTP binding domain inhibition assay (labeled GTP); conditions: 20 μM compound; KRas G12D; read-out: % Inhibition at 20 μM of K-Ras mutant and wild-type protein, KRas G12D
Sequence (P01116-2 other isoform, or with tags, fused parts or gaps G12D): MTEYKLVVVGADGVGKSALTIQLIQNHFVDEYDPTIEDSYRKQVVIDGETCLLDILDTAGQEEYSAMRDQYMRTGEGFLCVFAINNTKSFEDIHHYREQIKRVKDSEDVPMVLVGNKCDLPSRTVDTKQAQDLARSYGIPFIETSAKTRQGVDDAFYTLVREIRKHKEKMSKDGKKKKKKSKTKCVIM
measured.attribute: inhibition at 20 µM

| compound | test.target | measured.attribute | value.reported |
| --- | --- | --- | --- |
| CC(CO)Nc1nc(-c2nccn2C)nc2sc(-c3ccccc3)c(-c3ccccc3)c12 (stereo not drawn) [drawing 3578] | KRas G12D mutant protein (Homo sapiens (Human), UniProt P01116, G12D) | inhibition at 20 µM | 1 to 25% |
| COc1nc(-c2ccccn2)nc(Oc2cccc(C(F)(F)F)c2)c1O [drawing 3565] | KRas G12D mutant protein (Homo sapiens (Human), UniProt P01116, G12D) | inhibition at 20 µM | 51 to 75% |
| Cn1ccnc1-c1nc(O)c2scc(-c3ccccc3Cl)c2n1 [drawing 3615] | KRas G12D mutant protein (Homo sapiens (Human), UniProt P01116, G12D) | inhibition at 20 µM | 25 to 50% |
| CC(C)COc1ccc(-c2csc3c(O)nc(-c4cn(C)cn4)nc23)cn1 [drawing 3605] | KRas G12D mutant protein (Homo sapiens (Human), UniProt P01116, G12D) | inhibition at 20 µM | 1 to 25% |
| Cn1ccnc1-c1nc(O)c2sc(-c3ccccc3)c(-c3ccccc3)c2n1 [drawing 3588] | KRas G12D mutant protein (Homo sapiens (Human), UniProt P01116, G12D) | inhibition at 20 µM | 0% |
| COCCNc1nc(-c2cn(C)cn2)nc2sc(-c3ccncc3)c(-c3ccccc3)c12 [drawing 3530] | KRas G12D mutant protein (Homo sapiens (Human), UniProt P01116, G12D) | inhibition at 20 µM | 51 to 75% |
| Cn1ccnc1-c1nc(NCCOC2CC2)c2c(-c3ccccc3)c(-c3ccccc3)sc2n1 [drawing 3576] | KRas G12D mutant protein (Homo sapiens (Human), UniProt P01116, G12D) | inhibition at 20 µM | 1 to 25% |
| Cn1ccnc1-c1nc(NCCCO)c2c(-c3ccccc3)c(-c3ccccc3)sc2n1 [drawing 3579] | KRas G12D mutant protein (Homo sapiens (Human), UniProt P01116, G12D) | inhibition at 20 µM | 51 to 75% |
| Cn1cnc(-c2nc(O)c3scc(-c4cccc(OC(F)(F)F)c4)c3n2)c1 [drawing 3606] | KRas G12D mutant protein (Homo sapiens (Human), UniProt P01116, G12D) | inhibition at 20 µM | 25 to 50% |
| COc1nc(-c2ccccn2)nc2c1c(-c1ccccc1)nn2-c1ccccn1 [drawing 3540] | KRas G12D mutant protein (Homo sapiens (Human), UniProt P01116, G12D) | inhibition at 20 µM | 51 to 75% |
| COC(C)(C)c1ccc(-c2csc3c(O)nc(-c4nccn4C)nc23)cc1 [drawing 3618] | KRas G12D mutant protein (Homo sapiens (Human), UniProt P01116, G12D) | inhibition at 20 µM | 25 to 50% |
| Oc1nc(-c2ccccn2)nc2c(-c3cc(CN4CCCC4)ccc3F)csc12 [drawing 3502] | KRas G12D mutant protein (Homo sapiens (Human), UniProt P01116, G12D) | inhibition at 20 µM | 76 to 100% |
| CC(C)Oc1cnc(-c2ccccn2)nc1O [drawing 3481] | KRas G12D mutant protein (Homo sapiens (Human), UniProt P01116, G12D) | inhibition at 20 µM | 51 to 75% |
| Cn1ccnc1-c1nc(O)c2scc(-c3cccc(Cl)c3)c2n1 [drawing 3617] | KRas G12D mutant protein (Homo sapiens (Human), UniProt P01116, G12D) | inhibition at 20 µM | 25 to 50% |
| COCCNc1nc(-c2ccccn2)nc2c1c(-c1ccccc1)nn2-c1ccccn1 [drawing 3538] | KRas G12D mutant protein (Homo sapiens (Human), UniProt P01116, G12D) | inhibition at 20 µM | 51 to 75% |

====

Form field: inhibition at 20 µM (one value per entry).
biological target: KRas G12D/Q61H double mutant (Homo sapiens (Human), UniProt P01116, G12D/Q61H); experiment: Ras GTP binding domain inhibition assay (labeled GTP); conditions: 20 μM compound; KRas G12D/Q61H double mutant; read-out: % Inhibition at 20 μM of K-Ras mutant and wild-type protein, KRas G12D Q61H

| compound | inhibition at 20 µM |
| --- | --- |
| COc1ccc(CN(C)C(=O)c2cc(Br)c(Br)s2)c(OC)c1 | 25 to 50% |
| O=[N+]([O-])c1cc(C(F)(F)F)ccc1NCc1ccc2c(c1)OCCCO2 | 25 to 50% |
| Cc1nc2ccccc2n1CCNC(=O)c1cc(S(=O)(=O)N(C)C)ccc1N1CCOCC1 | 1 to 25% |
| Oc1nc(-c2ccccn2)nc2c1c(-c1ccccc1)nn2-c1ccccn1 [drawing 3539] | 51 to 75% |
| Cc1n[nH]c(C2CN(C(=O)c3cnc(C)s3)CCO2)n1 (stereo not drawn) | 1 to 25% |
| FC(F)Oc1ccc(N2CCOC(c3ccc(Br)cc3)C2)nc1 (stereo not drawn) | 25 to 50% |
| Nc1cccc(-c2csc3c(O)nc(-c4ccccn4)nc23)n1 [drawing 3514] | 51 to 75% |
| COC(=O)c1ccc(Oc2ccc(S(=O)(=O)N3CCCCC3)cc2NCc2cc(C)on2)cc1 | 25 to 50% |
| COC(=O)c1c(C)sc2c(O)nc(-c3ccccn3)nc12 [drawing 3473] | 51 to 75% |
| O=c1[nH]c(NCC(O)c2ccccc2)nc2ccccc12 (stereo not drawn) | 1 to 25% |
| COC(=O)c1ccc(CCSc2nnc(COc3cccc(C)c3)o2)cc1 | 25 to 50% |
| CC(C)CC(NC(=O)OC(C)(C)C)c1noc(Cc2c[nH]c3ccccc23)n1 (stereo not drawn) | 1 to 25% |
| CN(C)CCOc1cccc(-c2csc3c(O)nc(-c4ccccn4)nc23)c1 [drawing 3492] | 76 to 100% |
| COCCNc1nc(-c2ccccn2)nc2c1c(-c1ccccc1)nn2-c1ccccn1 [drawing 3538] | 51 to 75% |
| CN(Cc1ccccc1C(F)(F)F)S(=O)(=O)CCc1ccccc1[N+](=O)[O-] | 25 to 50% |
